Target: hGluN1/hGluN2A (Homo sapiens, UniProt Q05586+Q12879)
Sequence (Q12879 23-1464, other chains not shown): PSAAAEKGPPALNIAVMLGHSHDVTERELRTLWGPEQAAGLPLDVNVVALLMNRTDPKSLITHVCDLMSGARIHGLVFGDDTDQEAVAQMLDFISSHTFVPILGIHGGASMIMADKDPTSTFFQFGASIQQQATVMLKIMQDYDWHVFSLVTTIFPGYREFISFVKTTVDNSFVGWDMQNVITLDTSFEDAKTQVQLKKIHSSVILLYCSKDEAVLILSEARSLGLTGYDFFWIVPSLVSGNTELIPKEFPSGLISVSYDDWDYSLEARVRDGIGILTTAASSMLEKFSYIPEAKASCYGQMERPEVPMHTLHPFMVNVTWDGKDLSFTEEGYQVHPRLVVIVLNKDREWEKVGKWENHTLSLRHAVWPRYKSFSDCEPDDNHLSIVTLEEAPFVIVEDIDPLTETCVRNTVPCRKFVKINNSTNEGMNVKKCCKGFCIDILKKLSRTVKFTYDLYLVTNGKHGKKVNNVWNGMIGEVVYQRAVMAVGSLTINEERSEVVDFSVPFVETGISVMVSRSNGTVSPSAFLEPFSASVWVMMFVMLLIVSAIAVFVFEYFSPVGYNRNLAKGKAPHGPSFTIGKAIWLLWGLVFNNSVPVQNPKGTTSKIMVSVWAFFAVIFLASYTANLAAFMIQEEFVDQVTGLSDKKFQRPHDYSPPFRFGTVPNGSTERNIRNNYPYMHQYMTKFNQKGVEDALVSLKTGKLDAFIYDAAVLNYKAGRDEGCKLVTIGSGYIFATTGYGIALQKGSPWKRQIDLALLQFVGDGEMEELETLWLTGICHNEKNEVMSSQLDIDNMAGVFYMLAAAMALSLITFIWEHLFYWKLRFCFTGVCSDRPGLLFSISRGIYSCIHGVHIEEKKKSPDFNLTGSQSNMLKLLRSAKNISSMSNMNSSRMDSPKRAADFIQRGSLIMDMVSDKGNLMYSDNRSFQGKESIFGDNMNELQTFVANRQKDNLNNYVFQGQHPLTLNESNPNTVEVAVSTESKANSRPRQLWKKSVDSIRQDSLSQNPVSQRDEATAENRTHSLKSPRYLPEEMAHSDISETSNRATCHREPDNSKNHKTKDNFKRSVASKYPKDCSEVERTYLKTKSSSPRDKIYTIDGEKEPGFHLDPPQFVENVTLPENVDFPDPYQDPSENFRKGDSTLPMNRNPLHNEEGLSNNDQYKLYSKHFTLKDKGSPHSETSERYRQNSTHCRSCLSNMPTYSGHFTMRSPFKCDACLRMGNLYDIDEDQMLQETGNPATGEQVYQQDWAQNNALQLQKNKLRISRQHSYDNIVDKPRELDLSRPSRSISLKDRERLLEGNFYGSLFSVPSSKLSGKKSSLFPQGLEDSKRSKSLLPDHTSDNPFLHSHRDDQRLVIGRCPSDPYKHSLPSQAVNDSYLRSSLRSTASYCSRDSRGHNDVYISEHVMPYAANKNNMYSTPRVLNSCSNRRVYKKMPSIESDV
Experiment: cell-based
Parameters: gene GRIN1; cDNA vectors for human GluN1-1a and GluN2A co-transfected with GFP in HEK293 cells; diheteromeric receptor; whole-cell voltage-clamp electrophysiology, inhibition of steady-state L-glutamate-induced currents at -60 mV
Conditions: HEK293; -60 mV, 1 mM L-glutamate
Procedure: First, we determined the relative inhibition of all novel compounds on the two major diheteromeric NMDA receptor subtypes in the adult cortex – GluN1/GluN2A and GluN1/GluN2B [1] – using a clinically relevant concentration (3 µM). […] Concentration-response curves were fitted using Equation 1; the resulting IC50 values, Hill coefficients, and the numbers of cells measured for each membrane potential are shown in Table 3.
PROPERTY NAME: inhibition at 3 µM (%)
Could you give me the number in %? Just the number is fine.

Item: CCN(CC)C1c2ccccc2CCc2ccccc21 Test system: hGluN1/hGluN2A (Homo sapiens, UniProt Q05586+Q12879) Read-out: inhibition at 3 µM Value: ?
68.4

Item: CC(C)NC1c2ccccc2C=Cc2ccccc21 Test system: hGluN1/hGluN2A (Homo sapiens, UniProt Q05586+Q12879) Read-out: inhibition at 3 µM Value: ?
75.6

Item: CCNC1c2ccccc2CCc2ccccc21 Test system: hGluN1/hGluN2A (Homo sapiens, UniProt Q05586+Q12879) Read-out: inhibition at 3 µM Value: ?
34

Item: CCCCNC1c2ccccc2C=Cc2ccccc21 Test system: hGluN1/hGluN2A (Homo sapiens, UniProt Q05586+Q12879) Read-out: inhibition at 3 µM Value: ?
81.1

Item: CCCCNC1c2ccccc2CCc2ccccc21 Test system: hGluN1/hGluN2A (Homo sapiens, UniProt Q05586+Q12879) Read-out: inhibition at 3 µM Value: ?
76.4

Item: CCNC1c2ccccc2C=Cc2ccccc21 Test system: hGluN1/hGluN2A (Homo sapiens, UniProt Q05586+Q12879) Read-out: inhibition at 3 µM Value: ?
39.9

Item: COCCNC1c2ccccc2CCc2ccccc21 Test system: hGluN1/hGluN2A (Homo sapiens, UniProt Q05586+Q12879) Read-out: inhibition at 3 µM Value: ?
34.9

Data origin: paper doi:10.1101/2024.06.17.599304v1
